# target_entity: T1, 4-1BB Fc (human, UniProt Q07011 24-183)
# T1 construct: also called rh-41BB; 41BB-hFc
# test_summary: ELISA, 4-1BB Fc coated, VHH at 0.0005 nM
experimental_endpoint: OD450
Answers are plain numbers.

Below, each entry is followed by its recorded OD450 result.
binder	OD450
4-1BB-2 (VHH, not shown: small tags and cut ends) VHH: QVQLVESGGGLVQAGGSLRLSCAASGSIFSYNAMAWYRQAPGKQRELVALITSDRTTKYADSVKGRFTISRDDTKNTVDLEMNSLKPEDTAVYTCAALLNSARTSWGQGTQVTVSS	0.058
4-1BB-39 (VHH, not shown: small tags and cut ends) VHH: QVQLGSLGGGSAQPGGSLRLSCTGSGNVYDFVVMGWYRQFPGRQRELVANITGRASPNYVDSVKGRFTISRDNAQNTVHLQMNNLKVEDSAIYYCYAAQQLTTIAGVMTLDYWGSGTQVTVSS	0.072
4-1BB-3 (VHH, not shown: small tags and cut ends) VHH: EVQLVESGGGLVQAGGSLRLSCAASGNIFSYNGMAWYRQAPGNQRELVAVVAIDGTAKYADTVKGRFTISRDNIKNTVNLEMNSLKPEDTAVYTCAALRNSGSTSWGQGTQVTVSS	0.062

Below: the item to evaluate.
What the record says about 4-1BB-10 (VHH, not shown: small tags and cut ends) VHH: EVQLVESGGGLVQAGGSLRLSCAASGAIFSYNGMAWYRQAPGKQREFVAVITPDGTTKYGDSVKGRFTISRDITKNTVDLEMNSLKPEDTAVYTCAALRNSGSTSWGQGTQVTVSS : OD450 is 0.068

Hello, the source for this data is patent US20250376535A1, in case you need it.
